EXPERIMENTAL_SYSTEM: Full-length (FL)-PRMT5-MEP50 enzyme complex (Homo sapiens, UniProt O14744)
Construct: Full-length (FL)-PRMT5-MEP50 enzyme complex (recombinant proteins from baculovirus-transfected Sf21 cells: FL-PRMT5; MW=73837 kDa and FL-MEP50; MW=38614); made in house; host or cells: baculovirus-transfected Sf21 insect cells
Sequence (O14744 whole entry): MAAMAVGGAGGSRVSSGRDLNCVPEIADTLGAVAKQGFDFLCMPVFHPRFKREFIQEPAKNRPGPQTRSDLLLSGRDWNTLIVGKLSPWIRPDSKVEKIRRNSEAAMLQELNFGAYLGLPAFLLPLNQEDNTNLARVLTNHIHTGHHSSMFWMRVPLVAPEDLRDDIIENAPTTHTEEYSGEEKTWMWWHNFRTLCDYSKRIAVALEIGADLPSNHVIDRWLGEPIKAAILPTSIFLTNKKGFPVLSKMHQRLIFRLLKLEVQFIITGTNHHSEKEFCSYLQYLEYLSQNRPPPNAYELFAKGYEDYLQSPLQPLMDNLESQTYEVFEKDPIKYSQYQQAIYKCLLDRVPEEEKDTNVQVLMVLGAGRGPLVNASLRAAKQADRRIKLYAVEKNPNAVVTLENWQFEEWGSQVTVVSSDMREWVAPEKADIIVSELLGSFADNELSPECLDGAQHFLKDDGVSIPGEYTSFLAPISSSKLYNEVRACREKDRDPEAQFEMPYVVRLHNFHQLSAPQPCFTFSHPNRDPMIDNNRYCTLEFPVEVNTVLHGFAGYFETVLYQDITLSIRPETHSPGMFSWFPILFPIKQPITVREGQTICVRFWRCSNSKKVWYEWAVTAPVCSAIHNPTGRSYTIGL
Sequence (Q9BQA1 whole entry partner): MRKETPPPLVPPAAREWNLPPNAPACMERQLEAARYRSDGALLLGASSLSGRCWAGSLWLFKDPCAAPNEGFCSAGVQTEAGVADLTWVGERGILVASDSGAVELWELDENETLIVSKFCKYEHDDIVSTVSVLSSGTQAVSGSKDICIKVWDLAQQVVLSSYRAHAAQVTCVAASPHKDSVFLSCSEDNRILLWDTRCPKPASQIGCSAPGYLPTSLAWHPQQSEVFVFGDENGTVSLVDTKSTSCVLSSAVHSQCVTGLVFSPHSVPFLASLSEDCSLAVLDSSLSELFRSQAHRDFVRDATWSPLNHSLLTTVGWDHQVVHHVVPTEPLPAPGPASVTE
PROTOCOL_SUMMARY: PRMT5-MEP50 Enzyme Methylation Assay
Assay type: biochemical
MEASUREMENT_CONDITIONS: one EC50: 4 parameters single site sigmoidal model; EC50 1: first value of 7 parameters biphasic model; 1.0 nM PRMT5-MEP50, 75 nM biotinylated peptide, 15 μM SAM; read-out: Enzyme Methylation Assay (EC50 or EC50 1)
pEC50: −log10 of the molar value.
ENDPOINT: pEC50

In the examples that follow, each entry is paired with its recorded pEC50.
Recorded pEC50 for Cc1nc(N)nc2c1ccn2[C@@H]1O[C@@H]2[C@H](Cc3ccc4cc(Br)c(N)nc4c3)CC[C@]2(O)[C@H]1O , please?
9.15

pEC50 lookup needed for Cc1ncnc2c1ccn2[C@@H]1O[C@@H]2[C@H](Cc3ccc4cc(C(F)F)c(N)nc4c3)CC[C@]2(O)[C@H]1O , thanks.
9.40

Fill in the blank: the reported pEC50 of Cc1cn([C@@H]2O[C@@H]3[C@@H](Oc4ccc5cc(Br)c(N)nc5c4)CC[C@]3(O)[C@H]2O)c2ncnc(N)c12 is ____.
9.40

What value of pEC50 has been reported for the following compound? Cc1cc2ccc(C[C@@H]3CC[C@@]4(O)[C@@H]3O[C@@H](n3ccc5c(N)ncnc53)[C@@H]4O)cc2nc1N
9.10

Could you tell me which pEC50 is on file for Cc1cn([C@@H]2C[C@@H]3[C@H](Cc4ccc5cc(F)c(N)nc5c4)CC[C@]3(O)[C@H]2O)c2ncnc(N)c12 ?
9.52

Name the recorded pEC50 for Nc1nc2cc(C[C@@H]3CC[C@@]4(O)[C@@H]3O[C@@H](n3ccc5c(N)ncnc53)[C@@H]4O)c(F)cc2cc1F .
9.40

I = Nc1ccc2ccc(O[C@H]3CC[C@@]4(O)[C@@H]3O[C@@H](n3ccc5c(N)ncnc53)[C@@H]4O)cc2n1
II = C[C@@]1(O)[C@@H](COc2ccc3cc(Br)c(N)nc3c2)C[C@@H](n2ccc3c(N)ncnc32)[C@@H]1O
III = C[C@]1(COc2ccc3cc(Br)c(N)nc3c2)C[C@@H](n2ccc3c(N)ncnc32)[C@H](O)[C@]1(C)O
IV = Nc1nc2cc(O[C@H]3CC[C@@]4(O)[C@@H]3O[C@@H](n3ccc5c(CO)ncnc53)[C@@H]4O)ccc2cc1Br
Write the entries in order, lowest recorded pEC50 first. Give the labels in the order specified.
III, I, IV, II
(III: 7.51, I: 8.42, IV: 8.70, II: 9.30)

* * *

EXPERIMENTAL_SYSTEM: Full-length (FL)-PRMT5-MEP50 enzyme complex (Homo sapiens)
Construct: Full-length (FL)-PRMT5-MEP50 enzyme complex (recombinant proteins from baculovirus-transfected Sf21 cells: FL-PRMT5; MW=73837 kDa and FL-MEP50; MW=38614); made in house; host or cells: baculovirus-transfected Sf21 insect cells
PROTOCOL_SUMMARY: PRMT5-MEP50 Enzyme Methylation Assay
Assay type: biochemical
MEASUREMENT_CONDITIONS: one EC50: 4 parameters single site sigmoidal model; EC50 1: first value of 7 parameters biphasic model; 1.0 nM PRMT5-MEP50, 75 nM biotinylated peptide, 15 μM SAM; read-out: Enzyme Methylation Assay (EC50 or EC50 1)
ENDPOINT: EC50 (pM)

Form field: reported EC50 of Cc1ncnc2c1ccn2[C@@H]1C[C@@H]2[C@@H](Cc3ccc4cc(F)c(N)nc4c3)CC[C@]2(O)[C@H]1O
400

Name the reported EC50 value associated with the compound Cc1cn([C@@H]2C[C@@H]3[C@H](Cc4cc(F)c5cc(Cl)c(N)nc5c4)CC[C@]3(O)[C@H]2O)c2ncnc(N)c12
500

Fill blank: measured EC50 of the compound Cc1ncnc2c1ccn2[C@@H]1O[C@@H]2[C@@H](Oc3ccc4cc(Br)c(N)nc4c3)CC[C@]2(O)[C@H]1O is ____.
700

P = C[C@]1(COc2ccc3cc(Br)c(N)nc3c2)C[C@@H](n2ccc3c(N)ncnc32)[C@H](O)[C@@H]1O
Q = Nc1nc2cc(C[C@@H]3CC[C@@]4(O)[C@@H]3O[C@@H](n3ccc5c(N)nc(Cl)nc53)[C@@H]4O)ccc2cc1Cl
Hi! Which is lower in terms of EC50, the first one P or the second one Q ? Mark your selection by writing its label.
Q
(Q: 200 pM, P: 600 pM)
